Reference source for all entries: ChEMBL document CHEMBL4689842

Test system: Fibroblast
ASSAY_INFO: Incucyte cell viability with human fibroblast; note: filed as whole numbers so only -1 and 0 and 1 occur
Format: toxicity, cell-based
CONDITION_CONTEXT: 12 h, 10 µM, compound concentration 10 uM, replicate number 1, timepoint 12 hours
Catalogue of Growth Rate readings, one per entry.
Keep it simple and answer with nothing but the number.

Known Growth Rate results, listed for orientation:
COc1ccc2cc(OCC3(C(=O)O)CN(C(=O)c4ccc(F)cc4)C3)ccc2c1 [PF-04418948]: 0
CC(=O)C1=C(C)N(c2cccc(C(F)(F)F)c2)C(=O)N[C@H]1c1ccc(C#N)nc1 [BAY-677]: 0
COc1cccc([C@@H](C)NCCCc2ccccc2Cl)c1.Cl [TECALCET HYDROCHLORIDE]: 1
CC(C)NCC(O)COc1ccc(CCOCC2CC2)cc1.Cl (stereo not drawn) [BETAXOLOL HYDROCHLORIDE]: 0
CNC(=NCCSCc1csc(N=C(N)N)n1)NC#N [TIOTIDINE]: 0

Entry under review: O=C(/C=C/N1C[C@H]2C[C@@H]1CN2c1ccccn1)c1ccccc1O . Reported Growth Rate?
1

Request: O=C(NCc1ncc(C(F)(F)F)cc1Cl)c1ccc2c(c1)C1(CCS(=O)(=O)CC1)[C@H](C1CC1)N2S(=O)(=O)c1ccc(F)cc1 [BAY-784]
1

Request: Cc1nc(C2CCN(C(=O)c3ccc(OC(F)(F)F)cc3N)CC2)c2ncc(N3CCN(C)CC3)cc2n1 [BAY-693]
1

====

Catalogue of Population Apoptotic (%) readings, one per entry.
Tested on: HEK-293T
ASSAY_INFO: Multiplex assay against HEK293T
Assay type: toxicity, cell-based
CONDITION_CONTEXT: human, 24 h, 10 µM, compound concentration 10 uM, replicate 2
Write the value in % as a bare number.

Known Population Apoptotic (%) results, listed for orientation:
C=CC(=O)Nc1cccc(C(=O)Nc2ccc(Nc3cc(-c4[nH]c(SC)nc4C)ccn3)cc2)c1: 31
c1cn2cc(-c3ccc4cn[nH]c4c3)nc(Nc3ccc(N4CCOCC4)cc3)c2n1 [ENTOSPLETINIB]: 40
CN1CCN(CCOc2cc(OC3CCOCC3)c3c(Nc4c(Cl)ccc5c4OCO5)ncnc3c2)CC1 [SARACATINIB]: 88

Entry under review: Cc1cc(C)cc(-c2cnc3cc(Cl)c(-c4cccc(O)c4)cc3c2OCCCN)c1 . Reported Population Apoptotic (%)?
94

Request: CC(C)(O)CNc1ncc(-c2ccnc(Nc3ccnc(Cl)c3)n2)c(CC2CC2)n1
64

Request: COc1cc2nccc(Oc3ccc(NC(=O)Nc4cc(C)on4)c(Cl)c3)c2cc1OC.O
76

Request: C=CC(=O)Nc1ccc2ncnc(Nc3ccc(OCc4cccc(F)c4)c(Cl)c3)c2c1.Cc1ccc(S(=O)(=O)O)cc1
48

Request: CN1CCC[C@@H]1CCO[C@](C)(c1ccccc1)c1ccc(Cl)cc1.O=C(O)/C=C/C(=O)O [CLEMASTINE FUMARATE]
92

====

Test system: HEK-293T
ASSAY_INFO: Multiplex assay against HEK293T
Assay type: toxicity, cell-based
CONDITION_CONTEXT: human, 12 h, 1 µM, compound concentration 1 uM, replicate 1
ASSAY_ENDPOINT: Population Normal (%)
Write the value in % as a bare number.

Entry under review: Cc1nc(Nc2n[nH]c3c2CN(C(=O)N[C@H](CN(C)C)c2ccccc2)C3(C)C)c2sccc2n1 . Reported Population Normal (%)?
87

Request: Cl.N#Cc1ccc2[nH]cc(CCCCN3CCN(c4ccc5oc(C(N)=O)cc5c4)CC3)c2c1 [VILAZODONE HYDROCHLORIDE]
90

Request: Cc1csc2c(N[C@@H](C)CN3CCN(S(=O)(=O)c4ccc(Cl)c(Cl)c4)CC3)ncnc12
80

Request: COc1cccc([C@@H](C)NCCCc2ccccc2Cl)c1.Cl [TECALCET HYDROCHLORIDE]
88

Request: CN(C)C(=O)N[C@H]1CC[C@H](CCN2CCN(c3cccc(Cl)c3Cl)CC2)CC1.Cl [CARIPRAZINE HYDROCHLORIDE]
86

Request: NC(=O)Nc1cc(-c2cccc(F)c2)sc1C(=O)N[C@H]1CCCNC1
86

Request: Cc1nc(-c2cn3c(n2)-c2ccc(-c4cnn(C(C)(C)C(N)=O)c4)cc2OCC3)n(C(C)C)n1
77

Request: COc1cc(-n2cnc3cc(-c4ccc(Cl)cc4)sc3c2=O)ccc1OCCN1CCCC1
84

Request: Cc1nc(-c2ccc(-c3ccc(C(=O)N4CCc5cc6c(cc54)C4(CCN(C)CC4)CO6)cc3)c(C)c2)no1
85
